Measured values drawn from patent US7071293B1 for this set.

Tested on: B. cepacia ATCC 25416
protocolSummary: Two stage radial diffusion assay (MIC)
Format: cell-based
Parameters: unit not given here
setupConditions: underlay 0 mM NaCl
Ends that are not written are not given here.
observedProperty: B. cepacia ATCC 25416 in underlays of low, normal and high salinity, 0 mM NaCl

Short answer for KIKEKLKKIGQKIQGLL [Peptide 26] : B. cepacia ATCC 25416 in underlays of low, normal and high salinity, 0 mM NaCl was >250

Short answer for LRKFRNKIKEKLKKIGQKIQG [Peptide 23] : B. cepacia ATCC 25416 in underlays of low, normal and high salinity, 0 mM NaCl was >250

Short answer for LRRIIRKIIHIIKK-NH2 [Peptide 11] : B. cepacia ATCC 25416 in underlays of low, normal and high salinity, 0 mM NaCl was >79.1

Short answer for RKRLRKFRNKIKEKLKKIGQKI [Peptide 21] : B. cepacia ATCC 25416 in underlays of low, normal and high salinity, 0 mM NaCl was >250

Short answer for GLRKRLRKFRNKIKEKLKKIG [Peptide 19] : B. cepacia ATCC 25416 in underlays of low, normal and high salinity, 0 mM NaCl was >250

Short answer for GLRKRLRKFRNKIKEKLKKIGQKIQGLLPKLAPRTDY [Peptide 18] : B. cepacia ATCC 25416 in underlays of low, normal and high salinity, 0 mM NaCl was >79.1

Short answer for KNLRRIIRKIIHIIKKYGPTILRIIRIIG-NH2 [Peptide 28] : B. cepacia ATCC 25416 in underlays of low, normal and high salinity, 0 mM NaCl was 17.0

Short answer for LRKFRNKIKEKLKKIGQKI [Peptide 22] : B. cepacia ATCC 25416 in underlays of low, normal and high salinity, 0 mM NaCl was >250

Short answer for KRLRKFRNKIKEKLKKIG [Peptide 20] : B. cepacia ATCC 25416 in underlays of low, normal and high salinity, 0 mM NaCl was >250

Short answer for KIKEKLKKIGQKIQG [Peptide 25] : B. cepacia ATCC 25416 in underlays of low, normal and high salinity, 0 mM NaCl was >250

Short answer for KNLRRIIRKIIHIIKKYG [Peptide 8] : B. cepacia ATCC 25416 in underlays of low, normal and high salinity, 0 mM NaCl was 20.2

Short answer for RKFRNKIKEKLKKIG [Peptide 24] : B. cepacia ATCC 25416 in underlays of low, normal and high salinity, 0 mM NaCl was >250

---

What EC50 P. aeruginosa PAO1 was measured for each of the following?
Tested on: P. aeruginosa PAO1
setupConditions: ionic strength 175 mM; avg ± sem
Ends that are not written are not given here.
Numeric only. Scale: µg/mL

Short answer for GLRKRLRKFRNKIKEKLKKIG [CAP18-21a] : EC50 P. aeruginosa PAO1 was 0.54

Short answer for NLRRIIRKIIHIIKKY [SMAP29X-16A] : EC50 P. aeruginosa PAO1 was 1.78

Short answer for KNLRRIIRKIIHIIKKYG-NH2 [SMAP29X-18A] : EC50 P. aeruginosa PAO1 was 0.49

Short answer for KNIRRIIRKIIHIIKKYG-NH2 [SMAP29X-18B] : EC50 P. aeruginosa PAO1 was 0.54

Short answer for NIRRIIRKIIHIIKKY [SMAP29X-16D] : EC50 P. aeruginosa PAO1 was 3.64

Short answer for LRKFRNKIKEKLKKIGQKIQG [CAP18-21b] : EC50 P. aeruginosa PAO1 was 3.45

Short answer for KNLRRIIRKIIHIIKKYGPTILRIIRIIG-NH2 [SMAP29X] : EC50 P. aeruginosa PAO1 was 4.51

Short answer for RGLRALGRKIAHGVKAYG [SMAP29-18AA] : EC50 P. aeruginosa PAO1 was 7.85

Short answer for LRRIIRKIIHIIKK [SMAP29X-14B] : EC50 P. aeruginosa PAO1 was 5.55

Short answer for KNIRRIIRKIIHIIKKYG [SMAP29X-18C] : EC50 P. aeruginosa PAO1 was 0.61

Short answer for IRRIIRKIIHIIKK-NH2 [SMAP29X-14C] : EC50 P. aeruginosa PAO1 was 1.21

Short answer for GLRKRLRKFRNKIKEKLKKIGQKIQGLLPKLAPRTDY [CAP 18] : EC50 P. aeruginosa PAO1 was 0.50
